- procedure_text: chemical genetic growth profiling, strain panel (AID 1159580);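 further: tested at 20 µM; growth read once vehicle control cultures reached saturation at 30 °C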
- experimental_setup: S. cerevisiae deletion strains, growth OD, locus YMR277W, strain FCP1
Screen size: about 5,500 compounds; about 2,000 (36%) were called active. Another 18% or so got no clear call; they are omitted. No stated cut-off is given here; in the data, active means normalized growth mostly below about 0.91 (no sharp cut-off); inconclusive means no clear call, values can overlap the other calls; inactive means mostly above about 0.92. This is one part of the list.
Pick one and only one: active, inactive

These recorded examples may help you get a feel for the data.
O=C(OCc1ccc(Oc2ccc(Cl)cc2Cl)c([N+](=O)[O-])c1)c1ccc([N+](=O)[O-])o1
inactive
O=C(NNc1c(Cl)cccc1Cl)c1ccc([N+](=O)[O-])o1
inactive
O=C(N/N=C\c1cc(Cl)cc(Cl)c1O)c1ccccc1Oc1ccccc1
inactive
Cc1nc(C(F)(F)F)ccc1C(=O)Sc1nnc(-c2ccc(C(F)(F)F)nc2C)o1
inactive
N#C/C(=N/Nc1ccc(Cl)cc1)C(N)=S
active

Returns: the outcome recorded for N#C/C(=N/Nc1ccc(Cl)cc1)C(=O)C1CC1 in this assay. active

Returns: the outcome recorded for Cc1c(C(=O)NCCNc2ccc(C(F)(F)F)cc2[N+](=O)[O-])cnn1-c1ccc(F)cc1 in this assay. inactive

Returns: the outcome recorded for O=C(Oc1ccc(C2SCCS2)cc1)c1cccs1 in this assay. inactive

====

- procedure_text: chemical genetic growth profiling, strain panel (AID 1159580);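 further: tested at 20 µM; growth read once vehicle control cultures reached saturation at 30 °C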
- experimental_setup: S. cerevisiae deletion strains, growth OD, locus YDR101C, strain arx1, stronger effect = lower value
The whole screen tested about 5,500 compounds, of which about 2,000 (36%) were called active. About 18% were inconclusive and are not listed. Some of the results follow.
With a cut-off of 1, any normalized growth strictly below it is called fulfilled; any normalized growth meeting it or above is called not fulfilled.

These recorded examples may help you get a feel for the data.
O=c1cc(-c2ccc(O)cc2)oc2cc(O[C@@H]3O[C@H](CO)[C@@H](O)[C@H](O)[C@H]3O[C@@H]3OC[C@](O)(CO)[C@H]3O)cc(O)c12
fulfilled
C[C@]12CCC3C(CC[C@H]4C[C@@H](O)CC[C@]34C)C1CCC2=O (stereo partly drawn)
fulfilled
CCCCC(=O)O[C@H]1CCC2C3CCc4cc(O)ccc4C3CC[C@@]21C (stereo partly drawn)
fulfilled
CCOc1ccc(Cc2nccc3cc(OCC)c(OCC)cc23)cc1OCC
fulfilled
Nc1ncnc2c1ncn2[C@@H]1O[C@H](CO)[C@@H](O)[C@@H]1O
not fulfilled
COc1c(O)cc(O)cc1O
not fulfilled
COc1cc(O)c(C(=O)c2ccccc2)c(OC)c1
fulfilled
C[C@]12CCC3c4ccc(O)cc4CCC3C1CC[C@@H]2OC(=O)CCC1CCCC1 (stereo partly drawn)
fulfilled

Attention now turns to another entry.
State whether 1 exceeds normalized growth recorded for C=C(C)c1cc2cc(C(C)=O)c(O)cc2o1 . fulfilled

====

- procedure_text: chemical genetic growth profiling, strain panel (AID 1159580);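 further: tested at 20 µM; growth read once vehicle control cultures reached saturation at 30 °C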
- experimental_setup: S. cerevisiae deletion strains, growth OD, locus YLR418C, strain cdc73, stronger effect = lower value
The campaign covered roughly 5,500 compounds. About 2,000 (36%) were called active. Roughly 18% stayed inconclusive and do not appear here. This is one part of the list.
With a cut-off of 1, any normalized growth strictly below it is called Y; any normalized growth meeting it or above is called N.

These recorded examples may help you get a feel for the data.
COc1cc2c(cc1-c1coc3c4c(c(OC)cc3c1=O)OC(C)(C)C=C4)OCO2
Y
CC(C(=O)O)c1ccc(N2Cc3ccccc3C2=O)cc1 (stereo not drawn)
Y
Cn1nnnc1SCC1=C(C(=O)O)N2C(=O)C(NC(=O)C(OC=O)c3ccccc3)C2SC1 (stereo not drawn)
N
COc1cc2ccc(=O)oc2c2ccoc12
Y
CN1CCN(C(c2ccccc2)c2ccccc2)CC1
Y

Attention now turns to another entry.
State whether 1 exceeds normalized growth recorded for COc1c2c(cc3occ(-c4ccc5c(c4)OCO5)c(=O)c13)OC(C)(C)C=C2 . Y

Reference source: PubChem BioAssay AID1159580
